Values from PubChem BioAssay (NCATS)

# Tested on: CP268
# protocol text: qHTS profiling for inhibitors of Plasmodium falciparum proliferation (AID 504749); note: nearly all actives have a fitted effect of over 60% in size
# recorded conditions: P. falciparum in erythrocytes, SYBR Green DNA, 72 h; series mostly up to 28.7 µM
Results filed as inconclusive are left out. The source made the active and inactive calls. Calls come from the whole dose curve; as a rule, active = well fitted inhibition curve with a large enough effect; inconclusive = small, poorly fitted or top-dose-only effect; inactive = flat fitted curve, though single readings scatter. Bridge positions count the residues as written; N and C are the ends. Square brackets hold non-standard residues; d marks the D form. Peptide text beside a SMILES is read from it. * marks the point of attachment. ξ: configuration not given here. ξDab(CH2SO3H) = NC(CCNCS(=O)(=O)O)C(=O)O; Heptanoyl(6-Me) = CC(C)CCCCC(=O)*; Dab = NCC[CH](N)C(=O)O
Give your call using only these classes: active, inactive

Qu. Kindly provide the recorded test outcome for the following molecule: CCC(C)C1NC(=O)C(CCNCS(=O)(=O)O)NC(=O)C(NC(=O)C(CCNCS(=O)(=O)O)NC(=O)C(NC(=O)C(CCNCS(=O)(=O)O)NC(=O)CCCCC(C)C)C(C)O)CCNC(=O)C(C(C)O)NC(=O)C(CCNCS(=O)(=O)O)NC(=O)C(CCNCS(=O)(=O)O)NC(=O)C(C(C)CC)NC1=O (stereo not drawn) ({Heptanoyl(6-Me)}-[ξDab(CH2SO3H)]T[ξDab(CH2SO3H)][Dab][ξDab(CH2SO3H)]II[ξDab(CH2SO3H)][ξDab(CH2SO3H)]T; lactam 4-C; configuration not given here)
Ans. inactive

Qu. Recorded test call requested for CC(N)C(=O)NCC(=O)NC1CSSCC(C(=O)O)NC(=O)C(CO)NC(=O)C(C(C)O)NC(=O)C(Cc2ccccc2)NC(=O)C(C(C)O)NC(=O)C(CCCCN)NC(=O)C(Cc2c[nH]c3ccccc23)NC(=O)C(Cc2ccccc2)NC(=O)C(Cc2ccccc2)NC(=O)C(CC(N)=O)NC(=O)C(CCCCN)NC1=O (stereo not drawn)
Ans. inactive

Qu. Query: recorded result category for O=C(OCC1OC(OC(=O)c2cc(O)c(O)c(OC(=O)c3cc(O)c(O)c(O)c3)c2)[C@@H](OC(=O)c2cc(O)c(O)c(OC(=O)c3cc(O)c(O)c(O)c3)c2)C(OC(=O)c2cc(O)c(O)c(OC(=O)c3cc(O)c(O)c(O)c3)c2)C1OC(=O)c1cc(O)c(O)c(OC(=O)c2cc(O)c(O)c(O)c2)c1)c1cc(O)c(O)c(OC(=O)c2cc(O)c(O)c(O)c2)c1 (stereo partly drawn) in this test
Ans. active

----------
# system name: Cytochrome P450 3A4 (Homo sapiens) (UniProt P08684)
# Sequence (P08684 whole entry, looked up): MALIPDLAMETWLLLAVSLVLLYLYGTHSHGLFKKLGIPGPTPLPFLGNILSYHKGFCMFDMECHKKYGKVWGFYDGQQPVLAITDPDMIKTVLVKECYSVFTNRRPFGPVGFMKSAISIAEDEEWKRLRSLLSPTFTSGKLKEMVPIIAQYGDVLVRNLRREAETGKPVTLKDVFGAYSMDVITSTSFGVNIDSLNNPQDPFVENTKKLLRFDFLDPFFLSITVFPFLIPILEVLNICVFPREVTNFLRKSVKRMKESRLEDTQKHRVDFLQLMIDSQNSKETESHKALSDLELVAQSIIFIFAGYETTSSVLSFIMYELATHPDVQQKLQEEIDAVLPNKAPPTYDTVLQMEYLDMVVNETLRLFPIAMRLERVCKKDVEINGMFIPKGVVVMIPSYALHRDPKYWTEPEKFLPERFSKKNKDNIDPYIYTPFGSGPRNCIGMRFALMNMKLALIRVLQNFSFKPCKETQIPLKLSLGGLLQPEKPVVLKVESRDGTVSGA
# protocol text: qHTS Assay for Activators of Cytochrome P450 3A4 (AID 885); note: nearly all actives have a fitted effect of over 65% in size
# recorded conditions: recombinant CYP3A4, Luciferin-PPXE luminescence, 60 min; series mostly up to 57.1 µM
The source made the active and inactive calls. Calls come from the whole dose curve; as a rule, active = well fitted activation curve with a large enough effect; inconclusive = small, poorly fitted or top-dose-only effect; inactive = no such curve, though single readings can be large or run the other way.
measured endpoint: activity change, positive = activation

Some entries whose results are on file:
compound: CO[C@H]1COC(=O)C/C=C\[C@@H](C)[C@H](OC)COC(=O)CCC[C@@H]1C
activity change, positive = activation: -58.3% [at 11.4 µM] (inactive)
--
compound: COC(=O)NC(c1ccco1)[C@]1(C(C)=O)CCCC1=O (stereo partly drawn)
activity change, positive = activation: -35.9% [at 11.4 µM] (inactive)
--
compound: COc1ccc(-c2coc3ccc(OC4OC(COC(C)=O)C(OC(C)=O)C(OC(C)=O)C4OC(C)=O)c(OC(C)=O)c3c2=O)cc1 (stereo not drawn)
activity change, positive = activation: inactive
--
compound: CNC1=C(Br)C(=O)c2ccncc2C1=O
activity change, positive = activation: inactive
--
compound: COC(=O)[C@@H]1C[C@@]2(O)[C@@H](O)[C@@H](O)[C@@H](O)C[C@H]2N1Cc1ccc(C(C)(C)C)cc1
activity change, positive = activation: inactive
--
compound: C=CC[C@@H]1C=C[C@H](O/N=C(\C)CCN2CCc3nc(-c4ccccc4)c(-c4ccccc4)cc3C2)[C@H](CO)O1
activity change, positive = activation: -81.8% [at 11.4 µM] (inactive)

Qu. Sample COC(=O)[C@@H]1CC[C@H](C)[C@@H](c2ccc(C)cc2)N1C(=O)c1ccc(/C=N\OC[C@@H](O)[C@H]2O[C@H]3OC(C)(C)O[C@H]3[C@@H]2O)cc1 — what was its activity change, positive = activation?
Ans. -58.3% [at 11.4 µM] (inactive)

Qu. // query activity change, positive = activation value for entry C/C(CCN1CCCc2nc(C)c(C)cc21)=N\O[C@@H](C)c1cc(-c2c(C)cc(C)cc2C)no1
Ans. -56.9% [at 11.4 µM] (inactive)

----------
# system name: Tyrosine-protein kinase Yes (Homo sapiens) (UniProt P07947)
# Sequence (P07947 whole entry, looked up): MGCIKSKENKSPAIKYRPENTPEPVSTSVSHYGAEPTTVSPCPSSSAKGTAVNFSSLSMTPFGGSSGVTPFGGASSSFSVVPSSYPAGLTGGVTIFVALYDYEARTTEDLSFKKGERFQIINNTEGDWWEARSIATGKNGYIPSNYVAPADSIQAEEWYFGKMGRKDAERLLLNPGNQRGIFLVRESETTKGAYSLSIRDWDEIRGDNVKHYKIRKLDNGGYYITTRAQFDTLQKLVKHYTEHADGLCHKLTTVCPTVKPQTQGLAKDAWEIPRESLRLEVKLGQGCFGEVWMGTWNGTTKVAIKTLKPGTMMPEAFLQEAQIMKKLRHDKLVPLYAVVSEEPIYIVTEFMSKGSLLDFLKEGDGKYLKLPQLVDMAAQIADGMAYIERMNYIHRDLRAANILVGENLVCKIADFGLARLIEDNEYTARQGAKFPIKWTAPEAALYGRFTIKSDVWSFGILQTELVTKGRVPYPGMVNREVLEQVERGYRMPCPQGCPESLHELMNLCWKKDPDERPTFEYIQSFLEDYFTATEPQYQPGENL
# protocol text: qHTS for small molecule inhibitors of Yes1 kinase: Primary Screen (AID 686947); note: nearly all actives have a fitted effect of over 60% in size
# recorded conditions: Yes1 kinase biochemical qHTS inhibition; series mostly up to 76.9 µM
# Excerpt: The Src family of non-receptor protein tyrosine kinases contains nine members, including Yes1, Src, Fyn, Lyn, and […]. These kinases have important roles in a variety of cellular functions, such as cell proliferation, survival, and differentiation. Src, the most well characterized member of this family, has been previously identified as a proto-oncogene. […] In melanoma, it has been shown that Yes1, and not other family members, such as Src, is functionally involved in the malignant phenotype. […]
Records with an inconclusive call do not appear. Activity calls are given as the source filed them. Calls follow the shape of the dose curve; as a rule, active = well fitted inhibition curve with a large enough effect; inconclusive = small, poorly fitted or top-dose-only effect; inactive = no such curve, though single readings can be large or run the other way.
Select the matching outcome among active, inactive

Qu. Short answer needed: outcome of this test for Fc1cccc(COc2ccc(Nc3ncnc4sc(-c5ccco5)cc34)cc2Cl)c1 ?
Ans. inactive

Qu. Field: outcome | Entry: COc1cc(N2CCN(C(C)C)CC2)ccc1Nc1nc(Nc2ccc(F)cc2C(=O)NCC(O)CO)c2cc[nH]c2n1 (centres undefined)
Ans. inactive

Qu. Please state the recorded outcome for this compound: NC(=O)CCc1ccccc1Oc1nccc(-c2c(-c3ccc(F)cc3)ncn2C2CCNCC2)n1
Ans. inactive

Qu. Please let me know the test result on file for COc1ccc(-c2ccc3c(NC(=O)C4CC4)n[nH]c3n2)cc1 .
Ans. active

Qu. Fill in: this test's call for COC(=O)Nc1nc2ccc(Sc3ccc(NC(=O)Nc4cc(C(F)(F)F)ccc4F)cc3)cc2[nH]1 is ___
Ans. inactive

Qu. Could you check what this test reported for CC(Oc1cc(-n2cnc3ccc(OCC4CCN(C)CC4)cc32)sc1C(N)=O)c1ccccc1C(F)(F)F (centres undefined) ?
Ans. active

Qu. What call does the record list for O=C1NC(=O)C(c2cccc(Cl)c2)=C1Nc1ccc(Cl)c(C(=O)O)c1 ?
Ans. inactive

Qu. Recorded call for CS(=O)(=O)CCNCc1ccc(-c2ccc3ncnc(Nc4ccc(OCc5ccccc5)cc4)c3c2)o1 ?
Ans. active

Qu. What was the test verdict on COc1cc(Nc2ncc3c(C)nc(-c4cccc(C(F)(F)F)c4)n3n2)cc(OC)c1OC ?
Ans. active

----------
# protocol text: qHTS assay for small molecule antagonists of retinoid X receptor alpha signaling (AID 588546);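 note: cells stimulated with 9-cis-retinoic acid as agonist; % is set by controls: 0 for no effect and ±100 for the full control effect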
# recorded conditions: HEK293T RXRa-UAS-bla, beta-lactamase ratio, antagonist mode; measured here: W530 green channel, cytotoxicity proxy
Inconclusive results are not listed.
For each record, write down the corresponding max response.
Unit % implied. Number only.

Qu. Please report the recorded max response for CCCCCCCC(=O)Oc1c(Br)cc(C#N)cc1Br .
Ans. -5.85

Qu. Using the record for CCCCCCCCCCCCO , report its max response.
Ans. -2.04

Qu. Value lookup for max response; key = CCCCCC1CCC(=O)O1 (configuration not stated)
Ans. -5.89

Qu. Give the measured max response of C[Si]1(C)N[Si](C)(C)N[Si](C)(C)N1 .
Ans. -13.1

Qu. Need max response of Cc1ccc(Cl)cc1Cl , thanks.
Ans. -6.55

Qu. Returns the measured max response for the input compound. Input: CCCCCCCCCCCCCO
Ans. -5.73

Qu. Would you kindly share the measured max response for C[Si]1(C)O[Si](C)(C)O[Si](C)(C)O[Si](C)(C)O[Si](C)(C)O1 ?
Ans. -10.4

Qu. Return reported max response; argument: CCCCC(CC)COP(=O)(O)OCC(CC)CCCC (configuration not stated)
Ans. -7.8

Qu. Request the reported max response associated with CC(COCC(C)OC(=O)c1ccccc1)OC(=O)c1ccccc1 (configuration not stated)
Ans. -1.17

Qu. What measured max response goes with CC(=O)N(CCN(C(C)=O)C(C)=O)C(C)=O ?
Ans. -2.01

Qu. I have this compound here, CCCN(CCC)c1c([N+](=O)[O-])cc(C(F)(F)F)c(N)c1[N+](=O)[O-] , and I need its recorded max response.
Ans. -8.88

Qu. Look up max response: O=C(Cl)c1cccc(C(=O)Cl)c1
Ans. -3.89

Qu. Give the measured max response of C1=C/CC/C=C/CC/C=C/CC/1 .
Ans. 5.63

Qu. So what's the measured max response for this one? C=C[Si](C)(C)O[Si](C)(C)C=C
Ans. -11.2

Qu. Can you share its max response? I mean this compound: c1cc(-c2ccncc2)ccn1
Ans. 17.1

Qu. What does the record list as max response for COc1cc(Cl)c(OC)cc1N ?
Ans. 1.78

Qu. For the compound CCCCCCOCCOCCO , what max response is on record?
Ans. -13.6

Qu. Would you kindly share the measured max response for Nc1nc(N)nc(-c2ccccc2)n1 ?
Ans. -13.3

Qu. Endpoint output: max response of CCCCCCCC/C=C\CCCCCCCC(=O)OC . Value?
Ans. -9.12

Qu. What measured max response goes with CCCCCCCCCC(C)=O ?
Ans. -6.07

Qu. Item CCCCCCCCCCCCCC(=O)OC has what recorded max response?
Ans. -10

Qu. max response for CCC(C)OC(=O)N1CCCCC1CCO (configuration not stated) ?
Ans. -13

Qu. What does the record list as max response for NN(c1ccccc1)c1ccccc1 ?
Ans. -11.7

Qu. Consider the compound shown here: CCCCCCCCCCCCCCCCCC#N What is its recorded max response?
Ans. -8.8

Qu. Need max response of C=Cc1ccc(P(c2ccccc2)c2ccccc2)cc1 , thanks.
Ans. -0.204

Qu. Given the entry CC1=CC(=O)CC(C)(C)C1 , report its measured max response.
Ans. -3.41

Qu. Could you tell me which max response is on file for Cc1ccc2c(c1)C(=O)OC2=O ?
Ans. -9.63

Qu. May I ask what max response has been recorded for CCCCN(CCCC)CCCC ?
Ans. -19.1

Qu. Which max response is listed for C=C(C)C(=O)OCCOCCOCCOC(=O)C(=C)C ?
Ans. 3.38

Qu. Name the reported max response value associated with the compound CC1(C)C(=O)N(Cl)C(=O)N1Cl
Ans. 1.31

Qu. # query: max response of entry O=C(O)c1ccc2c(c1)C(=O)OC2=O
Ans. -2.35

Qu. Need max response of COC(OC)(C(=O)c1ccccc1)c1ccccc1 , thanks.
Ans. -15.2

Qu. Fill in the blank: the reported max response of CCCCCCCCC(=O)O is ____.
Ans. -8.04

Qu. # query: max response of entry COCCOCCOCCOC
Ans. 0.474

Qu. Give its max response value. Item: CC1(C)C(=O)NC(=O)N1CO
Ans. -6.79

Qu. Need max response, item COC(=O)c1cccc(C(=O)OC)c1
Ans. -14.8

Qu. What does the record list as max response for OCC(CO)(CO)COCC(CO)(CO)CO ?
Ans. -4.98

Qu. # query: max response of entry C=CC(=O)OCC[N+](C)(C)C
Ans. 1.52

Qu. Please give the measured max response for this compound: CC(C)(C)c1n[nH]c(=O)n(N)c1=O
Ans. -5.34

Qu. Return reported max response; argument: CCc1c(C(=O)O)c(=O)cnn1-c1ccc(Cl)cc1
Ans. -1.3

Qu. // max response lookup, key: COc1nc(C)nc(NC(=O)NS(=O)(=O)c2ccccc2OCCCl)n1
Ans. 11.2

Qu. Endpoint output: max response of O=[N+]([O-])c1ccc(O)cc1C(F)(F)F . Value?
Ans. 6.72

Qu. # get_value(readout='max response', item= CCCCOCC(C)OCC(C)O (configuration not stated) )
Ans. -15.5

Qu. Value lookup for max response; key = Brc1ccc(Oc2ccc(Br)cc2)cc1
Ans. -2.23

Qu. Look up max response for this compound: Cc1ccc(N=Nc2c(O)ccc3ccccc23)c([N+](=O)[O-])c1
Ans. -4.75

Qu. Form field: reported max response of C/C=C/C/C=C\CCCCCCCCOC(C)=O
Ans. -5.66

Qu. Fill in: max response of C[Si](Cl)(Cl)c1ccccc1 is ___
Ans. -2.11

Qu. Form field: reported max response of O=[N+]([O-])c1ccc2c(c1)Cc1ccccc1-2
Ans. -2.02

Qu. What value of max response has been reported for the following compound? OCCC(F)(F)C(F)(F)C(F)(F)C(F)(F)C(F)(F)C(F)(F)C(F)(F)C(F)(F)F
Ans. -18.9

Qu. Report max response for CC(=O)OC1CCC(C(C)(C)C)CC1 (configuration not stated) please.
Ans. -1.04

Qu. Quick check: max response of CC(C)c1ccc2cc(C(C)C)ccc2c1 ?
Ans. -11.7

Qu. Requested field: max response. Item: CC1(C)CC(OC(=O)CCCCCCCCC(=O)OC2CC(C)(C)NC(C)(C)C2)CC(C)(C)N1
Ans. 5.99

Qu. Would you mind telling me what max response value was observed for CCCCCCCCCC[N+](C)(C)Cc1ccccc1 ?
Ans. 16

Qu. Sample CNc1nc(=O)n(C2CCC(O)CC2)c(=O)n1C (configuration not stated) — what was its max response?
Ans. -9.65

Qu. Entry under review: COC(=O)c1ccc(CNS(C)(=O)=O)cc1S(=O)(=O)NC(=O)Nc1nc(OC)cc(OC)n1 . Reported max response?
Ans. -12.9

Qu. I have this compound here, C=CC(=O)OCC(C)OCC(C)OCC(C)OC(=O)C=C (configuration not stated) , and I need its recorded max response.
Ans. -20.7

Qu. I am curious: what max response value has been reported for Cc1ccc(C(=O)c2ccccc2)cc1 ?
Ans. 9.26
